# System: human rhinovirus (HRV) serotypes
# Method description: microbe, parasite or virus in culture
# Assay type: cell-based
# Experimental setup: read-out: Rhinovirus MIC50
Value type: MIC50 (µg/mL)
Kindly provide the numeric value in µg/mL only, without the unit symbol.

INSERT INTO results (compound, value_type, assay_value) VALUES
  ('Cc1cc(CCCCC(C)Oc2c(Cl)cc(C3=NCCO3)cc2Cl)on1 (centres unmarked)', 'MIC50', 0.16);

What value of measured MIC50 is listed for Cc1cc(CCCCCOc2ccc(C3=NCCO3)c(O)c2C)on1 ?
0.13

Same for Cc1cc(CCCCCOc2ccc(-c3nc(C)c(C)o3)cc2Cl)on1
0.29

Same for Cc1cc(CCCCCOc2ccc(C3=NCCO3)c(Cl)c2Cl)on1
0.27

Same for Cc1cc(CCCCCOc2ccc(C3=NCCO3)cc2C)on1
0.09

* * *

# Method description: blood plasma concentration in dogs after oral administration
# Assay type: in vivo
# Experimental setup: dog, beagle dogs, fasted, oral 25 mg/kg in corn oil, up to six hours
# if value of Cmax reaches 2000 ng/mL, tag Satisfied; if it stays below, tag Not satisfied

INSERT INTO measurements (molecule, category) VALUES
  ('Cc1cc(CCCCCOc2c(C)cc(C3=NCCO3)cc2C)on1', 'Satisfied'),
  ('Cc1cc(CCCCCOc2c(Cl)cc(C3=NCCO3)cc2Cl)on1', 'Not satisfied'),
  ('Cc1cc(CCCCC(C)Oc2c(Cl)cc(C3=NCCO3)cc2Cl)on1 (stereo not drawn)', 'Satisfied'),
  ('Cc1cc(CCCCCOc2c(Cl)cc(-c3nc(C)c(C)o3)cc2Cl)on1', 'Satisfied'),
  ('Cc1cc(CCCCCCOc2c(Cl)cc(C3=NCCO3)cc2Cl)on1', 'Not satisfied');

Now turn to the next molecule.
Kindly determine if Cmax recorded for Cc1cc(CCCCCOc2c(Cl)cc(C3=NC(C)CO3)cc2Cl)on1 (stereo not drawn) is above or exactly 2000 ng/mL.
Not satisfied

* * *

# System: human rhinovirus (HRV) serotypes
# Method description: microbe, parasite or virus in culture
# Format: cell-based
# Experimental setup: read-out: Rhinovirus MIC50
Value type: MIC50 (µg/mL)
Kindly provide the numeric value in µg/mL only, without the unit symbol.

INSERT INTO measurements (compound, assayed_system, value_type, assay_value) VALUES
  ('Cc1cc(CCCCCOc2c(Cl)cc(C3=NCCO3)cc2Cl)sn1', 'human rhinovirus (HRV) serotypes', 'MIC50', 0.12),
  ('Cc1cc(CCCCCCCOc2ccc(C3=NCCO3)cc2)on1', 'human rhinovirus (HRV) serotypes', 'MIC50', 1.7),
  ('Cc1cc(CCCCCCCOc2ccc(C3=NCC(CCl)O3)cc2)on1 (centres unmarked)', 'human rhinovirus (HRV) serotypes', 'MIC50', 0.87);

We now examine a further compound.
Write down the reported MIC50 of OCc1cc(CCCCCOc2c(Cl)cc(C3=NCCO3)cc2Cl)on1 , test system: human rhinovirus (HRV) serotypes.
0.13

* * *

Entries annotated with measured log10 MIC50
# System: human rhinovirus (HRV) serotypes
# Method description: microbe, parasite or virus in culture
# Format: cell-based
# Experimental setup: read-out: Rhinovirus MIC50
Units before log transform: µg/mL; reported quantity: MIC50; transform: log10.

Example molecules with recorded log10 MIC50:
INSERT INTO results (chemical_smiles, assayed_system, assay_value) VALUES
  ('Cc1cc(CCCCCOc2c(C)cc(-c3nc(C)c(C)o3)cc2C)on1', 'human rhinovirus (HRV) serotypes', -0.43),
  ('Cc1cc(CCCCCOc2c(Cl)cc(-c3cnco3)cc2Cl)on1', 'human rhinovirus (HRV) serotypes', -0.68),
  ('Cc1cc(CCCCCOc2ccc(C3=NCCCO3)cc2)on1', 'human rhinovirus (HRV) serotypes', 0.22),
  ('Cc1cc(CCCCCCc2ccc(C3=NCCO3)cc2)on1', 'human rhinovirus (HRV) serotypes', -0.59),
  ('CC(=O)c1cc(C2=NCCO2)ccc1OCCCCCc1cc(C)no1', 'human rhinovirus (HRV) serotypes', -0.26),
  ('Cc1cc(CCCCCOc2ccc(C3=NCCO3)cc2C=CBr)on1', 'human rhinovirus (HRV) serotypes', -0.64),
  ('Cc1cc(CCCCCOc2ccc(C3=NCCO3)cc2C=O)on1', 'human rhinovirus (HRV) serotypes', -0.07),
  ('Cc1noc(CCCCCCCOc2ccc(C3=NCCO3)cc2Cl)c1CO', 'human rhinovirus (HRV) serotypes', -0.51);

What value of measured log10 MIC50 is listed for Cc1cc(CCCCCOc2c(Cl)cc(C(=O)NCCCl)cc2Cl)on1 ?
-0.80

Same for CC[C@H]1COC(c2ccc(OCCCCCCCc3cc(C)no3)cc2)=N1
-0.44
